- test-method-notes: Human HepG2 cell viability assay in 384 well format
- Type: toxicity, cell-based
- Set-up: dose 125 nL, time 70.5 hour; concentration not given beside the values
- conditions-used: HepG2 cells, read-out: Inhibition
reported-property: cytotoxicity at 70.5 h (%)
The figure you give is taken to be in %; do not add the unit.

compound	data-value
Cc1ccc(OCC(=O)Nc2ccc(S(C)(=O)=O)cc2)cc1C	14
O=C(c1cccnc1-n1cncn1)N1CCN(CC(F)(F)F)CC1	-0.957
CC(C1CCN(Cc2cnc(-c3cccs3)nc2)CC1)N(C)C (stereo unspecified)	28.9
COc1cc2nc3n(c(=O)c2cc1OC)CCN(C(=O)C1CC1)CC3	20

Find the recorded cytotoxicity at 70.5 h belonging to Cc1cnc(N2C[C@@H]3[C@@H](C2)OCC(=O)N3CC2CC2)nc1 and report it.
14.2

And the next one, Cn1ccc(C(=O)N(CC(F)F)c2cccc(Cl)c2)cc1=O ?
-2.11

Do the same for Cc1cc(CN2CC[C@H]3C[C@H](C)O[C@@H]3C2)no1 please
-13.8

Note, next up: O=C(CCn1cncn1)N1C[C@H]2CC[C@@H]1CN(Cc1cccnc1)C2
-9.48

Would you mind doing O=C(c1cnccn1)N1CCC(Cc2cnc3[nH]ccc3c2)CC1 as well?
-2.92

And what about the compound Cn1nccc1C(=O)N1CCC2(CC1)COC(COc1ccccn1)C2 (stereo unspecified) ?
-11.2

Also need Cc1ccc(S(=O)(=O)NCc2cccc(C(=O)N3CCCC3)c2)cc1F , thanks.
-7.96

These measurements were taken from ChEMBL document CHEMBL3507680.
